# Assay explanation: Paclitaxel plasma levels / pharmacokinetics in mice
# Type: in vivo, NIH mice
# Test settings: both, NIH, mouse, plasma, iv, 18 mg/kg, T1/2β, paclitaxel 18 mg/kg i.v., with FG020326 100 mg/kg p.o.
Measured property: half-life

CC(=O)O[C@H]1C(=O)[C@@]2(C)[C@H]([C@H](OC(=O)c3ccccc3)[C@]3(O)C[C@H](OC(=O)[C@H](O)[C@@H](NC(=O)c4ccccc4)c4ccccc4)C(C)=C1C3(C)C)[C@]1(OC(C)=O)CO[C@@H]1C[C@@H]2O [Paclitaxel] : 1.42 h

----------
# Assay explanation: Paclitaxel plasma levels / pharmacokinetics in mice
# Type: in vivo, NIH mice
# Test settings: both, NIH, mouse, plasma, iv, 18 mg/kg, AUC0→ 12, paclitaxel 18 mg/kg i.v., without FG020326
Measured property: AUC(0-t) (ng·h/mL)

CC(=O)O[C@H]1C(=O)[C@@]2(C)[C@H]([C@H](OC(=O)c3ccccc3)[C@]3(O)C[C@H](OC(=O)[C@H](O)[C@@H](NC(=O)c4ccccc4)c4ccccc4)C(C)=C1C3(C)C)[C@]1(OC(C)=O)CO[C@@H]1C[C@@H]2O [Paclitaxel] : 73600

----------
# Test system: the entire cell lines tested
# Assay explanation: MTT cytotoxicity of FG020326 alone
# Assay type: cell-based
# Test settings: read-out: IC50 (cytotoxicity of FG020326 alone); MTT; entire cell lines tested
Measured property: IC50

COC(=O)/C=C/c1ccc(-c2nc(-c3ccc(N(C)C(C)C)cc3)c(-c3ccc(N(C)C(C)C)cc3)[nH]2)cc1 [FG020326] : > 50 µM

----------
# Test system: KBv200 (ABCB1)
# Assay explanation: MTT cytotoxicity / MDR reversal
# Format: cell-based, human
# Test settings: Homo sapiens, KBv200, read-out: IC50 ± SD
Measured property: IC50 (nM)

COc1cccc2c1C(=O)c1c(O)c3c(c(O)c1C2=O)C[C@@](O)(C(=O)CO)C[C@@H]3O[C@H]1C[C@H](N)[C@H](O)[C@H](C)O1 [Doxorubicin, doxorubicin, reference compound] : 979
CC(=O)O[C@H]1C(=O)[C@@]2(C)[C@H]([C@H](OC(=O)c3ccccc3)[C@]3(O)C[C@H](OC(=O)[C@H](O)[C@@H](NC(=O)c4ccccc4)c4ccccc4)C(C)=C1C3(C)C)[C@]1(OC(C)=O)CO[C@@H]1C[C@@H]2O : 48.3
CC[C@]1(O)C[C@H]2CN(CCc3c([nH]c4ccccc34)[C@@](C(=O)OC)(c3cc4c(cc3OC)N(C=O)[C@H]3[C@@](O)(C(=O)OC)[C@H](OC(C)=O)[C@]5(CC)C=CCN6CC[C@]43[C@@H]65)C2)C1 : 1320

----------
# Assay explanation: Paclitaxel plasma levels / pharmacokinetics in mice
# Type: in vivo, NIH mice
# Test settings: both, NIH, mouse, plasma, iv, 18 mg/kg, MRT, paclitaxel 18 mg/kg i.v., without FG020326
Measured property: MRT (h)

CC(=O)O[C@H]1C(=O)[C@@]2(C)[C@H]([C@H](OC(=O)c3ccccc3)[C@]3(O)C[C@H](OC(=O)[C@H](O)[C@@H](NC(=O)c4ccccc4)c4ccccc4)C(C)=C1C3(C)C)[C@]1(OC(C)=O)CO[C@@H]1C[C@@H]2O : 1.54

----------
# Tested on: UniProtKB P08183
# Sequence (P08183 whole entry): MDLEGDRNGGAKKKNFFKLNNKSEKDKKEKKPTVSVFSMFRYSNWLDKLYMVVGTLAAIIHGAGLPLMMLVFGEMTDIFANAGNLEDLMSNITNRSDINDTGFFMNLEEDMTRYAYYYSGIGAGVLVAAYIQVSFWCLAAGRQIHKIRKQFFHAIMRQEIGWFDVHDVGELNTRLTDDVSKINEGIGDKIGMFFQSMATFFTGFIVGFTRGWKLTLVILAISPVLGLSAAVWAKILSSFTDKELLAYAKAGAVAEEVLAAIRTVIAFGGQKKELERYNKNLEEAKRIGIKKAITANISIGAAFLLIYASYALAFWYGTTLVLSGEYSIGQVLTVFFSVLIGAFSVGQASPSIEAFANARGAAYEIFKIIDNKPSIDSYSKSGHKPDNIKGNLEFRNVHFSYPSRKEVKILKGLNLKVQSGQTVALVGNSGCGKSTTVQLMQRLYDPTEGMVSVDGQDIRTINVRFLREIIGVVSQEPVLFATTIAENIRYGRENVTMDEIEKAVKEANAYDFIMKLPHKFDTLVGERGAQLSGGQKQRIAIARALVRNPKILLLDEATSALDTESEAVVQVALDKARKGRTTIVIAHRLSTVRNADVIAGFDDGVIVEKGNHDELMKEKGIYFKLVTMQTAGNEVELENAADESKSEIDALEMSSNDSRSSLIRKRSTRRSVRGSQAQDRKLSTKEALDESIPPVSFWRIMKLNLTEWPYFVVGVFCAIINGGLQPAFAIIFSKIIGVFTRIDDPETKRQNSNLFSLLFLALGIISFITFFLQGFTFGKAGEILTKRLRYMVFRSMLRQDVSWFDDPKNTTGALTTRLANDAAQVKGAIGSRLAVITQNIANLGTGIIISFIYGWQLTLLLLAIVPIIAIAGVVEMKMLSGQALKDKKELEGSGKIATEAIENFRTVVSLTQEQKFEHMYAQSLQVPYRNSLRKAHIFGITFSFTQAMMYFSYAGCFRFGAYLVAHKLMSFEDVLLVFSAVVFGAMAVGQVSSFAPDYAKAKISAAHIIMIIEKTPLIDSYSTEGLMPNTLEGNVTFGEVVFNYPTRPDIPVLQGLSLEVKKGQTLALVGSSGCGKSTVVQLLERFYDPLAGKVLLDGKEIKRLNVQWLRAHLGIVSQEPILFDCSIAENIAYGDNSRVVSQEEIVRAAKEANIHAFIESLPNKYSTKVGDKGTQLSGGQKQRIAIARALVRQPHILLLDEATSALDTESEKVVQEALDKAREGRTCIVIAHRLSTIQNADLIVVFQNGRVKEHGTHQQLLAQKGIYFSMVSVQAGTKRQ
# Type: biochemical
# Test settings: read-out: IC50, inhibition of ABCB1 ATPase activity; Vi-sensitive ATPase; membrane vesicles of High Five insect cells
pIC50: −log10 of the molar value.
Measured property: pIC50

COC(=O)/C=C/c1ccc(-c2nc(-c3ccc(N(C)C(C)C)cc3)c(-c3ccc(N(C)C(C)C)cc3)[nH]2)cc1 : 5.60

----------
# Assay explanation: Paclitaxel plasma levels / pharmacokinetics in mice
# Format: in vivo, NIH mice
# Test settings: both, NIH, mouse, plasma, iv, 18 mg/kg, Vd, paclitaxel 18 mg/kg i.v., without FG020326
Measured property: Vd (L)

CC(=O)O[C@H]1C(=O)[C@@]2(C)[C@H]([C@H](OC(=O)c3ccccc3)[C@]3(O)C[C@H](OC(=O)[C@H](O)[C@@H](NC(=O)c4ccccc4)c4ccccc4)C(C)=C1C3(C)C)[C@]1(OC(C)=O)CO[C@@H]1C[C@@H]2O : 0.0124
